# measurement_target: T1, recombinant C-terminal polyhistidine-tagged human (extracellular) CD89 (human, UniProt P24071 22-227)
# T1 construct: extracellular domain; bought (Sino Biological); also called rhuCD89
# method_summary: ELISA, coated rhuCD89, half-maximum binding
Each record is given Yes if its reported EC50 is strictly below 0.05 µg/mL. Records at or above 0.05 µg/mL are given No.

As a guide, the following entries are already answered.
mouse anti-human CD89-specific antibody 10E7 (antibody, mouse IgG1, V domains shown) VH: EVQLVESGGGLVQPGGSLKLSCAASGLTFSSYGMSWVRQTPDKRLELVATINGNGDITYYPDSVKGRFTISRDNAKNTLYLQMSSLKSEDTAMYYCARDYDYDYAMDYWGQGTSVTVSS VL: DIQMTQSTSSLSASLGDSVTISCRASQDIINYLNWYQQKPDGTVKLLIYYTSRLHSGVPSRFSGSGSGTEYSLTVSNLEKEDIATYFCQQGKTLPYTFGGGTKLEIK
Yes
mouse anti-human CD89-specific antibody 30C7 (antibody, mouse IgG1, V domains shown) VH: QVQLQQSGPELVRPGVSVKISCKGSGYTFTDYVMHWVKQSHAKSLEWIGVISTYSGNTNYNQKFKGKATMTVDKSSSTAYMELARLTSEDSAIYYCARESDGYYFDYWGQGTTLTVSS VL: DIVMSQSPSSLAVSAGEKVTMSCKSSQSLLNSRTRKNYLAWYQQKPGQSPKLLIYWASTRESGVPDRFTGSGSGTDFTLTISSVQAEDLAVYYCKQSYNLMYTFGGGTKLEIK
Yes
mouse anti-human CD89-specific antibody 16D6 (antibody, mouse IgG1, V domains shown, also called 16D16) VH: QVQLQQSGAELMKPGASVKISCKATGYTFSTYWIEWVKQRPGHGLEWIGEILPGSGSANYNEKFKGKATFTADTSSNTAYMQLSSLTFEDSAVYYCAKGFGSPYYYAMDYWGQGTSVTVSS VL: EIVLTQSPALMAASPGEKVTITCSVSSSISSSNLHWYQQKSETSPKPWIYGTSKLASGVPVRFSGSGSGTSYSLTISNMEAEDAATYYCQQWSSFPLTFGGGTKLEIK
No
mouse anti-human CD89-specific antibody 20B4 (antibody, mouse IgG1, V domains shown) VH: QVQLKESGPGLVAPSQSLSITCTVSGFSLTSYGVHWVRQPPGKGLEWLGIIWAGGSTSYNSALMSRLSISKDNSKSQVFLKMNSLQTDDTAMYYCARDHYDLFAYWGQGTLVTVSA VL: DILMTQSPSSMSVSLGDTVSITCHASQDISRNIGWLQQKPGKSFKGLIYHGTNLEDGVPSRFSGSGSGADYSLTISSLESEDFADYYCVQYAQFPRTFGGGTKLEIK
Yes

Now for a further binder.
query: Please determine if mouse anti-human CD89-specific antibody 8F3 (antibody, mouse IgG1, V domains shown) VH: EVQLVESGGGLVKPGGSLKLSCAASGFTFSNYGMSWVRQTPDKRLEWVATMHSGGTYTYYPDNVKGRFTISRDNAKNNLYLQMSSLRSEDTAMYYCARETGLYDGLFDFWGQGTTLTVSS VL: DVQITQSPSYLAASPGETITINCRASKTISKYLAWYQEKPGKTNMLLIYSGSTLQSGVPSRFSGSGSGTDFTLTISSLEPEDLAMYYCQQHDEYPWTFGGGTKLEIK is below 0.05 µg/mL in terms of EC50.
result: No
